Biological target: CYP 3A4 enzyme in human liver microsomes (Homo sapiens, UniProt P08684)
Sequence (P08684 whole entry): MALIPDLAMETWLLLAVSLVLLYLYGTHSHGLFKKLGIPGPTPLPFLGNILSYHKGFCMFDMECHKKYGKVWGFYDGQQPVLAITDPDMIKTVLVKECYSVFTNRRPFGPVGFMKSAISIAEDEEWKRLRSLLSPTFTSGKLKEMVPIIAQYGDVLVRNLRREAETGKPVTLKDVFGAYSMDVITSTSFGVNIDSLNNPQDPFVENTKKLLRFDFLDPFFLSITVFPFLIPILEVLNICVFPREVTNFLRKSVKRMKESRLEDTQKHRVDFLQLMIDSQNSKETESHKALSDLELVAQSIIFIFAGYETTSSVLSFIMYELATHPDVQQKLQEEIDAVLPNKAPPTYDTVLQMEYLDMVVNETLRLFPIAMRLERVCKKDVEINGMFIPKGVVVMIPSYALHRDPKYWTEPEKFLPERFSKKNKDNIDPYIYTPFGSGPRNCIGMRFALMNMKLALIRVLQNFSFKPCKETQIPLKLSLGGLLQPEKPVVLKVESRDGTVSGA
Assay: CYP3A4 inhibition experiment in human liver microsomes
Conditions: CYP 3A4T IC50, human liver microsomes, testosterone as substrate
pIC50: −log10 of the molar value.
measured endpoint: pIC50

Consider the reported pIC50 for these compounds:
compound	target or system	pIC50
CC(C)N1CC[C@@H](Nc2cccc3c(CC(F)(F)F)c(C#CCNC(=O)c4cnn(C(C)(C)C)c4N)nn23)[C@@H](F)C1	CYP 3A4 enzyme in human liver microsomes (Homo sapiens, UniProt P08684)	4.73
COC(C)(C)Cn1cc(C(=O)NCC#Cc2nn3c(N[C@@H]4CCN(C)C[C@@H]4F)cccc3c2CC(F)(F)F)cn1	CYP 3A4 enzyme in human liver microsomes (Homo sapiens, UniProt P08684)	4.56

a: CC(n1ncc(C(=O)NCC#Cc2nn3c(N[C@@H]4CCN(C)C[C@@H]4F)cccc3c2CC(F)(F)F)c1N)C(F)(F)F (single isomer, unassigned) [Compound 355B]
b: CCN1CC[C@@H](Nc2cccc3c(CC(F)(F)F)c(C#CCNC(=O)c4cnn(C(C)(C)C)c4N)nn23)[C@@H](F)C1
Task: For a and b , which recorded pIC50 is lower? Give the label under which the chosen entry appears.
Output: b
